B1: library; numbered along this chain (parent)
chain: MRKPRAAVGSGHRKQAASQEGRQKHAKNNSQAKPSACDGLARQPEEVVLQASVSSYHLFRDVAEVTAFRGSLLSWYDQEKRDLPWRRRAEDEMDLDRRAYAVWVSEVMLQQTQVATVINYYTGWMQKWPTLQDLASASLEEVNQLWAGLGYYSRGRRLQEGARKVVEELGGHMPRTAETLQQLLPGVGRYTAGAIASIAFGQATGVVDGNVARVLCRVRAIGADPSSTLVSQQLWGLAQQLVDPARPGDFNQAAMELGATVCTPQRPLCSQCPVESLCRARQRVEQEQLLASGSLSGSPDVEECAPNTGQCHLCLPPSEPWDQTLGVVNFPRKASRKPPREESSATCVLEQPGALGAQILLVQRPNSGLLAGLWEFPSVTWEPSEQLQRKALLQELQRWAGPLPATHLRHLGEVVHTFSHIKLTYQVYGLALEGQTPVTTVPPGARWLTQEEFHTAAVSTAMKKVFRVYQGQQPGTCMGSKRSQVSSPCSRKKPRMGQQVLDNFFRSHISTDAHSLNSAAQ

variants of: B1; assay: 8OG:A repair function score (normalized; synonymous = 0, nonsense = -1) (normalized log-likelihood score); higher = more repair activity (WT-like); conditions: with 8OG:A DNA repair reporter (GFP) in HEK-293 MUTYH KO cells;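 further: cells sorted at 72 h after reporter transfection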
Cut-off -0.2 on 8OG:A repair function score, inclusive. At or above means condition met; below means condition not met.

Illustrative cases are given below, each with its answer.
>>> cat("G248C")
"condition not met"
>>> cat("K333L")
"condition not met"
>>> cat("I198G")
"condition not met"
>>> cat("A345C")
"condition met"
>>> cat("Y469W")
"condition met"
>>> cat("G258D")
"condition not met"
>>> cat("S296H")
"condition met"
>>> cat("L183G")
"condition met"
>>> cat("F453V")
"condition met"
>>> cat("N517R")
"condition met"

Ask: Check if 8OG:A repair function score >= -0.2 (inclusive). Item: H514P
Result: condition met

Ask: Check if 8OG:A repair function score >= -0.2 (inclusive). Item: Q233H
Result: condition met

Ask: Check if 8OG:A repair function score >= -0.2 (inclusive). Item: A357L
Result: condition met

Ask: Check if 8OG:A repair function score >= -0.2 (inclusive). Item: P404D
Result: condition met

Ask: Check if 8OG:A repair function score >= -0.2 (inclusive). Item: Y152A
Result: condition not met
